Cited source for all entries: paper PMC7826789

Can you tell me Percent Control for the items I'm about to list?
Tested on: MAP4K3;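 further: KINOMEscan scanMAX binding as percent activity remaining versus control; lower means stronger binding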
CONDITIONS USED: Compound Concentration (nM):1000
Numbers only, in %.

Would you be so kind as to report Percent Control for each listed record?
1. COc1ccc2cc(-c3c(-c4ccncc4)nc(-c4ccc(S(C)(=O)=O)cc4C)n3C)ccc2c1
2. NS(=O)(=O)c1ccc(N/N=C2\C(=O)Nc3ccc(Cl)cc32)cc1 [GW280670X]
3. CC1=C(C(=O)Nc2ccc3[nH]ncc3c2)C(c2ccc(Cl)c(Cl)c2)CC(=O)N1 (stereo not shown) [GSK299115A]
4. CN1CCN(C(=O)c2ccc(NC(=O)Nc3ccc(N(C)c4ccnc(Nc5ccc(CS(C)(=O)=O)cc5)n4)cc3)cc2)CC1.Cl [GW830263A]

OUT:
1. 93
2. 94
3. 79
4. 25
